- assayProtocol: in vitro
- Type: cell-based
- experimentalSetup: for respective culture cells; read-out: toxicity CC50
attributeMeasured: CC50

[in] Identify CC50 associated with the molecule NC(=O)c1ncn([C@@H]2O[C@H](CO)[C@@H](O)[C@H]2O)n1
[out] > 100 µM
